assay: Cytotoxicity against human HuH7 cells after 72 hrs; type: cell-based, Huh-7
Quantity measured: CC50 at 72 h

Cc1cn([C@@H]2O[C@H](CO[Si](C)(C)C(C)(C)C)[C@@]3(OS(=O)(=O)C=C3N)[C@H]2O[Si](C)(C)C(C)(C)C)c(=O)n(C(=O)CCCC(=O)NCc2ccccc2)c1=O: > 100 µM
CNC(=O)CCCC(=O)n1c(=O)c(C)cn([C@@H]2O[C@H](CO[Si](C)(C)C(C)(C)C)[C@@]3(OS(=O)(=O)C=C3N)[C@H]2O[Si](C)(C)C(C)(C)C)c1=O: > 100 µM
Cc1cn([C@@H]2O[C@H](CO[Si](C)(C)C(C)(C)C)[C@@]3(OS(=O)(=O)C=C3N)[C@H]2O[Si](C)(C)C(C)(C)C)c(=O)n(C(=O)CCCC(=O)N(C)C)c1=O: > 100 µM
Cc1cn([C@@H]2O[C@H](CO[Si](C)(C)C(C)(C)C)[C@@]3(OS(=O)(=O)C=C3N)[C@H]2O[Si](C)(C)C(C)(C)C)c(=O)n(C(=O)CCCC(=O)OCc2ccccc2)c1=O: > 100 µM
C[C@@]1(O)[C@H](O)[C@@H](CO)O[C@H]1n1ccc(N)nc1=O: > 33 µM

----------
tested on: Human immunodeficiency virus 1; test: Antiviral activity against HIV1 3B infected in human CEM cells assessed as inhibition of virus-induced cytopathicity after 4 days; type: functional, organism-based; settings: Human immunodeficiency virus 1, 3B, CCRF-CEM, 96 h
Quantity measured: EC50 (nM)

Cc1cn([C@@H]2O[C@H](CO[Si](C)(C)C(C)(C)C)[C@@]3(OS(=O)(=O)C=C3N)[C@H]2O[Si](C)(C)C(C)(C)C)c(=O)n(C(=O)CCCC(=O)OCc2ccccc2)c1=O: 40
Cc1cn([C@@H]2O[C@H](CO[Si](C)(C)C(C)(C)C)[C@@]3(OS(=O)(=O)C=C3N)[C@H]2O[Si](C)(C)C(C)(C)C)c(=O)n(C(=O)c2ccccc2)c1=O: 49
Cc1cn([C@@H]2O[C@H](CO[Si](C)(C)C(C)(C)C)[C@@]3(OS(=O)(=O)C=C3N)[C@H]2O[Si](C)(C)C(C)(C)C)c(=O)n(C(=O)C2CC2)c1=O: 42
CNC(=O)CCCC(=O)n1c(=O)c(C)cn([C@@H]2O[C@H](CO[Si](C)(C)C(C)(C)C)[C@@]3(OS(=O)(=O)C=C3N)[C@H]2O[Si](C)(C)C(C)(C)C)c1=O: 59
Cc1cn([C@@H]2O[C@H](CO[Si](C)(C)C(C)(C)C)[C@@]3(OS(=O)(=O)C=C3N)[C@H]2O[Si](C)(C)C(C)(C)C)c(=O)n(C(=O)CCCBr)c1=O: 52
CSC(=O)CCCC(=O)n1c(=O)c(C)cn([C@@H]2O[C@H](CO[Si](C)(C)C(C)(C)C)[C@@]3(OS(=O)(=O)C=C3N)[C@H]2O[Si](C)(C)C(C)(C)C)c1=O: 37
Cc1cn([C@@H]2O[C@H](CO[Si](C)(C)C(C)(C)C)[C@@]3(OS(=O)(=O)C=C3N)[C@H]2O[Si](C)(C)C(C)(C)C)c(=O)n(C(=O)CCCC(=O)N(C)C)c1=O: 32
Cc1cn([C@@H]2O[C@H](CO[Si](C)(C)C(C)(C)C)[C@@]3(OS(=O)(=O)C=C3N)[C@H]2O[Si](C)(C)C(C)(C)C)c(=O)n(C(=O)CCCC(=O)OC(C)(C)C)c1=O: 33

----------
system: Human immunodeficiency virus 1; test: Antiviral activity against HIV1 3B infected in human CEM cells assessed as inhibition of virus-induced cytopathicity after 4 days; assay type: functional, organism-based; conditions: Human immunodeficiency virus 1, 3B, CCRF-CEM, 96 h
pEC50: −log10 of the molar value.
Quantity measured: pEC50

Cc1cn([C@@H]2O[C@H](CO[Si](C)(C)C(C)(C)C)[C@@]3(OS(=O)(=O)C=C3N)[C@H]2O[Si](C)(C)C(C)(C)C)c(=O)n(C(=O)CCCC(N)=O)c1=O: 7.42
Cc1cn([C@@H]2O[C@H](CO[Si](C)(C)C(C)(C)C)[C@@]3(OS(=O)(=O)C=C3N)[C@H]2O[Si](C)(C)C(C)(C)C)c(=O)n(C)c1=O: 7.43
COC(=O)c1cccc(C(=O)n2c(=O)c(C)cn([C@@H]3O[C@H](CO[Si](C)(C)C(C)(C)C)[C@@]4(OS(=O)(=O)C=C4N)[C@H]3O[Si](C)(C)C(C)(C)C)c2=O)c1: 7.39
COC(=O)CCCC(=O)n1c(=O)c(C)cn([C@@H]2O[C@H](CO[Si](C)(C)C(C)(C)C)[C@@]3(OS(=O)(=O)C=C3N)[C@H]2O[Si](C)(C)C(C)(C)C)c1=O: 7.27
COC(=O)n1c(=O)c(C)cn([C@@H]2O[C@H](CO[Si](C)(C)C(C)(C)C)[C@@]3(OS(=O)(=O)C=C3N)[C@H]2O[Si](C)(C)C(C)(C)C)c1=O: 7.15
Cc1cn([C@@H]2O[C@H](CO[Si](C)(C)C(C)(C)C)[C@@]3(OS(=O)(=O)C=C3N)[C@H]2O[Si](C)(C)C(C)(C)C)c(=O)n(C(=O)CCCC(=O)NCc2ccccc2)c1=O: 7.28

----------
test: Cytotoxicity against human CEM cells after 4 days; type: cell-based; conditions: CEM (CCRF-CEM) cells
Quantity measured: CC50 at 96 h (µM)

Cc1cn([C@@H]2O[C@H](CO[Si](C)(C)C(C)(C)C)[C@@]3(OS(=O)(=O)C=C3N)[C@H]2O[Si](C)(C)C(C)(C)C)c(=O)n(C(=O)OC(C)(C)C)c1=O: 26
CNC(=O)CCCCn1c(=O)c(C)cn([C@@H]2O[C@H](CO[Si](C)(C)C(C)(C)C)[C@@]3(OS(=O)(=O)C=C3N)[C@H]2O[Si](C)(C)C(C)(C)C)c1=O: 10
Cc1cn([C@@H]2O[C@H](CO[Si](C)(C)C(C)(C)C)[C@@]3(OS(=O)(=O)C=C3N)[C@H]2O[Si](C)(C)C(C)(C)C)c(=O)n(C(=O)CCCC(=O)OC(C)(C)C)c1=O: 11

Measured values drawn from ChEMBL document CHEMBL1828535 for this set.
